measured.on: M3 receptor (Homo sapiens, UniProt P20309)
Sequence (P20309 whole entry): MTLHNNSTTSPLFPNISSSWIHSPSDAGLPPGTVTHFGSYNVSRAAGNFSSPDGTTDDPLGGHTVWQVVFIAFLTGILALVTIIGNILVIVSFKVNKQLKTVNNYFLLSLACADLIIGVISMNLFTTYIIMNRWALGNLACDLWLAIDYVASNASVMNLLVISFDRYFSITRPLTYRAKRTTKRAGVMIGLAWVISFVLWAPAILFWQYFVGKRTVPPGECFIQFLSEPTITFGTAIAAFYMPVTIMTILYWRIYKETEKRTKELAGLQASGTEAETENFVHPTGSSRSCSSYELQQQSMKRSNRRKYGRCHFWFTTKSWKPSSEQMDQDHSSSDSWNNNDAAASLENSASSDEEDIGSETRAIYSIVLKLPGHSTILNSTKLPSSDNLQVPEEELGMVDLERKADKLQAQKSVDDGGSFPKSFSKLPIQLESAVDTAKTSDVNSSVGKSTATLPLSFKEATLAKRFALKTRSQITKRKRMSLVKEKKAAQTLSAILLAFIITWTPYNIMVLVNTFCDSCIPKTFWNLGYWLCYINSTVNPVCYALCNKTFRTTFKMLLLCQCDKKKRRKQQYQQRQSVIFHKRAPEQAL
measurement.notes: two-step DMR assay, pure compounds, on endogenous M3 receptor in HT-29 cells
Form field: IC50 (one value per entry).
Answer with a number only, understood to be in µM.

CN1C2CC(OC(=O)C(CO)c3ccccc3)CC1C(O)C2O (centres unmarked) [Compound 5, dihydroanisodamine]
7.48

Requested read-out: IC50. Entry: CN1[C@H]2C[C@H](OC(=O)[C@H](CO)c3ccccc3)C[C@@H]1[C@@H](O)C2 [Compound 2, anisodamine, reference compound]
1.3

###

measured.on: M1 receptor (Homo sapiens)
Sequence (P11229 whole entry): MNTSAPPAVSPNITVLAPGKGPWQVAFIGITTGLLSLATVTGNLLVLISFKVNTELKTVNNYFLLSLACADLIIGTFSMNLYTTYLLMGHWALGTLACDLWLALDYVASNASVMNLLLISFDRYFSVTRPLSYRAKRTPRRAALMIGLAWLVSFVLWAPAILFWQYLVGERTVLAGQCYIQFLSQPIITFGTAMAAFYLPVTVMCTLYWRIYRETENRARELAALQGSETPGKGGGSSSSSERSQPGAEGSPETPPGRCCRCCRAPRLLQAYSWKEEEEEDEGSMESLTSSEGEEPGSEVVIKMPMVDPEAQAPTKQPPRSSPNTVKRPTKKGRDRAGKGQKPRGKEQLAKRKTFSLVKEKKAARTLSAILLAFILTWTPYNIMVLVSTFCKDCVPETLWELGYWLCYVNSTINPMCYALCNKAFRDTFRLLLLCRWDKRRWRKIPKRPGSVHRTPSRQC
measurement.notes: DMR assay, inhibition of acetylcholine DMR in M1-transfected CHO cells
assay.metric: IC50 (nM)
Answer with a number only, understood to be in nM.

Requested read-out: IC50. Entry: O=C(CCc1ccc(O)c(O)c1)NCCCCNCCCNC(=O)CCc1ccc(O)c(O)c1 [Compound 17, N1,N10-di-dihydrocaffeoylspermidine]
1820
